Target: Streptavidin (Streptomyces avidinii) (UniProt P22629)
Sequence (P22629 whole entry, looked up): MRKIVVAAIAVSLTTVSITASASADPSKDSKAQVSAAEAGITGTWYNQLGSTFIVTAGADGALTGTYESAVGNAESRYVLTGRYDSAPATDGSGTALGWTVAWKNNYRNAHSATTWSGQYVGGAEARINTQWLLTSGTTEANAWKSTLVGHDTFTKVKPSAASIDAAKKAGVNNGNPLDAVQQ
Assay: compounds binding control protein streptavidin – biophysical, small-molecule microarray, 635/667 nm fluorescence, artefact control for SMM compound annotation, primary screen (AID 1147);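 note: signal reflects streptavidin binding to arrayed compounds as a control protein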
Details: higher = more signal
So basically: composite z-score at 0.4 or higher? That is yes (1). Lower than 0.4? That is no (0).

# count of solved cases: 3
{"columns": ["MOLECULE", "MEASUREMENT_TARGET", "ASSIGNED_CLASS"],
 "data": [
  ["CCCC1(C(=O)OC)C=C2C(=C(C)C(=O)C2C)CN1 (stereo not given)", "Streptavidin (Streptomyces avidinii) (UniProt P22629)", "no (0)"],
  ["[N-]=[N+]=Nc1ccccc1C[C@@]1(C(=O)NCCN2CCOCC2)N=C(c2ccc(OCCCO)cc2)O[C@@H]1c1ccccc1N=[N+]=[N-]", "Streptavidin (Streptomyces avidinii) (UniProt P22629)", "yes (1)"],
  ["CN(C)c1ccc(C(O)C2C=CC3C(=O)NC(=O)C3N2Nc2ccccn2)cc1 (stereo not given)", "Streptavidin (Streptomyces avidinii) (UniProt P22629)", "no (0)"]
]}

Hi team, for CC(C)NC(=O)[C@@]1(c2ccc([N+](=O)[O-])cc2)CC(=O)N(C2CCCCC2)[C@@H]1c1ccc(CO)cc1 , is the recorded composite z-score at or above 0.4?
no (0)

Hi team, for CCCC=C(CCC)[C@@H](NC(=O)c1cccs1)c1ccc(C(=O)OC)cc1 , is the recorded composite z-score at or above 0.4?
no (0)

Hi team, for CC[C@@H]1C=C(C(=O)O)[C@H](c2ccc(C#N)cc2)N1S(=O)(=O)c1ccc(C)cc1 , is the recorded composite z-score at or above 0.4?
yes (1)

Hi team, for [N-]=[N+]=Nc1ccccc1C[C@]1(C(=O)NCCN2CCOCC2)COC(c2ccc(OCCCO)cc2)=N1 , is the recorded composite z-score at or above 0.4?
yes (1)

Hi team, for O=C1[C@H]2C=C(I)[C@H](C[C@@H]2OCCOCCO)[C@@]12CO2 , is the recorded composite z-score at or above 0.4?
yes (1)

Hi team, for C=CCOC(=O)[C@@H]1[C@H]2C(=O)O[C@H](c3ccccc3)[C@H](c3ccccc3)N2[C@H](c2ccc(OCCOC(=O)[C@@H]3C[C@@H]4C(=O)N[C@@H](CCCC[N+](C)(C)C)C(=O)N4[C@@H]3c3ccc(O)cc3)cc2)[C@@]12C(=O)Nc1ccc(I)cc12 , is the recorded composite z-score at or above 0.4?
no (0)

====

Test: probe aShh binding to arrayed compounds – biochemical, biotinylated probe, 635/667 nm fluorescence, primary screen (AID 1114);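 note: probe is biotin-labelled aShh protein from a stem cell growth factor screen; measures binding of labelled protein to compounds printed on the slide; score merges feature fluorescence at 667 nm with signal-to-noise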
Settings: small-molecule microarray, higher = more signal
Please go through the items and note down their composite z-score.
Give bare numbers.

Previously resolved entries follow.
{"columns": ["COMPOUND", "EXPERIMENTAL_RESULT"],
 "data": [
  ["CC(C)=C1C(=O)C(c2ccccc2)=C2CN3C(=O)N(CCc4ccccc4)C(=O)[C@]3(Cc3ccc(C(F)(F)F)cc3)[C@H]21", 0.275],
  ["CN(C)C(=O)[C@]1(CCC(=O)OC(C)(C)C)N=C(c2ccc(OCCCO)cc2)O[C@@H]1c1ccccc1CN=[N+]=[N-]", 0.4],
  ["COc1cc(NN2C(C(O)c3cc(OC)c(OC)c(OC)c3)C=CC3C(=O)N(C)C(=O)C32)cc(OC)c1OC (stereo not drawn)", 0.23],
  ["COCC(=C=CC[C@H](O)c1ccc(OCCO)cc1)CCO", -0.138],
  ["CC(C)C(CO)N1C(=O)[C@@H]2C3C(=O)OCCC/C=C\\[C@H]3OC23C=CCN(c2ccc4ccccc4c2)C(=O)[C@@H]13 (stereo partly drawn)", -0.0822],
  ["COC(=O)C1=CC(CCCO)=CC(c2cccs2)N(C)C=C1C(=O)OC (stereo not drawn)", -0.165],
  ["CC(C)N1C(=O)c2ccccc2[C@@H](C(=O)NCCN2CCOCC2)[C@@H]1c1ccc(CO)cc1", -0.221]
]}

For the next question, use this compound.
What value of measured composite z-score is listed for C=CCNC(=O)[C@@H]1[C@H]2C(=O)O[C@H](c3ccccc3)[C@H](c3ccccc3)N2[C@H](c2ccccc2OCCO)[C@@]12C(=O)N(C(=O)OCCOC)c1ccc(C#CC3(O)CCCCCC3)cc12 ?
-0.0035

====

Please go through the items and note down their z-score.
Test: compound effects on lung adenocarcinoma cell viability – A549, calcein-AM fluorescence, 48 h, basal, profiling panel (AID 1162); note: test concentration not given here
Conditions: higher = more signal

{"columns": ["ITEM_SMILES", "EXPERIMENTAL_RESULT"],
 "data": [
  ["CCCCC=C[C@@H](NC(=O)OCc1ccccc1Cl)c1ccccc1", -1.28],
  ["CCOC(=O)C[C@H]1[C@H](OC(=O)Cc2ccc3c(c2)OCO3)[C@@H](NC(=O)C2CCCCC2)c2cc(OCCCO)ccc2N1C(=O)c1ccccc1", 1.99],
  ["CCOC(=O)C1=C[C@@H](C(C)C)N(S(=O)(=O)c2ccc(C)cc2)[C@H]1c1ccc(C(F)(F)F)cc1", -0.731]
]}

Hello, I would appreciate it if you could give z-score for each entry below.
1. COCC(=C=CC[C@H](O)c1ccc(OCCO)cc1)CCO
2. CN(C)C(=O)[C@]1(CCC(=O)OC(C)(C)C)N=C(c2ccc(OCCCO)cc2)O[C@@H]1c1ccccc1CN=[N+]=[N-]
3. C=CCOC(=O)[C@@H]1[C@H]2C(=O)O[C@H](c3ccccc3)[C@H](c3ccccc3)N2[C@H](c2ccc(OCCOC(=O)[C@@H]3C[C@@H]4C(=O)N[C@@H](CCCC[N+](C)(C)C)C(=O)N4[C@@H]3c3ccc(O)cc3)cc2)[C@@]12C(=O)Nc1ccc(I)cc12
4. C=CCNC(=O)[C@@H]1[C@H]2C(=O)O[C@H](c3ccccc3)[C@H](c3ccccc3)N2[C@H](c2ccc(OCCO)cc2)[C@@]12C(=O)N(C(=O)OCCOC)c1ccc(C#Cc3ccc(OC)cc3)cc12

1. 1.06
2. -0.307
3. -0.602
4. -0.528

====

Tested on: Inhibin beta A chain (activin A)
Assay: small molecules binding activin A – biochemical, small-molecule microarray, 635 nm fluorescence scan, primary screen (AID 1107);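 note: mouse activin A protein probed at 4.33 µg/mL on printed slides; score merges bound-protein fluorescence near 667 nm with spot signal-to-noise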
Settings: INHBA, higher = more signal
So basically: composite z-score at 0.7 or higher? That is Met. Lower than 0.7? That is Not met.

{"columns": ["MOLECULE", "MEASUREMENT_TARGET", "ASSIGNED_CLASS"],
 "data": [
  ["COC(=O)C1(CC(C)C)C=C2C(=C(c3ccccc3)C(=O)C2C)CN1 (centres undefined)", "Inhibin beta A chain (activin A)", "Met"]
]}

Hi team, for COc1ccc(CCNC(=O)[C@@]2(Cc3ccccc3I)c3ccccc3C(=O)N(C3CCCCC3)[C@H]2c2ccc(CO)cc2)cc1 , is the recorded composite z-score at or above 0.7?
Not met

Hi team, for COc1ccc(C#Cc2ccc3c(c2)[C@]2(C(=O)N3)[C@H](C(=O)O)[C@H]3C(=O)O[C@H](c4ccccc4)[C@H](c4ccccc4)N3[C@@H]2c2ccc(O)cc2)cc1 , is the recorded composite z-score at or above 0.7?
Not met

Hi team, for C=CCC(OC(C)=O)[C@@H]1[C@@H](N(Cc2ccc(-c3cccc(C(F)(F)F)c3)o2)C(=O)Cc2ccc(OC)cc2)c2cc(OCCCO)ccc2N1C(=O)c1ccc(-c2ccccc2)cc1 (some centres undefined) , is the recorded composite z-score at or above 0.7?
Met

Hi team, for O=C(c1ccccc1)N1C(=O)[C@]2(Cc3ccccc31)N=C(c1ccc(OCCCO)cc1)O[C@@H]2c1ccccc1 , is the recorded composite z-score at or above 0.7?
Not met

Hi team, for COc1ccc(C#Cc2ccc3c(c2)[C@]2(C(=O)N3)[C@H](c3ccc(OCCO)cc3)N3[C@H](c4ccccc4)[C@H](c4ccccc4)OC(=O)[C@H]3[C@@H]2C(=O)NC[C@H](O)c2ccccc2)cc1 , is the recorded composite z-score at or above 0.7?
Not met

====

Please go through the items and note down their composite z-score.
Molecular target: E3 ubiquitin-protein ligase XIAP (Homo sapiens) (UniProt P98170)
Sequence (P98170 whole entry, looked up): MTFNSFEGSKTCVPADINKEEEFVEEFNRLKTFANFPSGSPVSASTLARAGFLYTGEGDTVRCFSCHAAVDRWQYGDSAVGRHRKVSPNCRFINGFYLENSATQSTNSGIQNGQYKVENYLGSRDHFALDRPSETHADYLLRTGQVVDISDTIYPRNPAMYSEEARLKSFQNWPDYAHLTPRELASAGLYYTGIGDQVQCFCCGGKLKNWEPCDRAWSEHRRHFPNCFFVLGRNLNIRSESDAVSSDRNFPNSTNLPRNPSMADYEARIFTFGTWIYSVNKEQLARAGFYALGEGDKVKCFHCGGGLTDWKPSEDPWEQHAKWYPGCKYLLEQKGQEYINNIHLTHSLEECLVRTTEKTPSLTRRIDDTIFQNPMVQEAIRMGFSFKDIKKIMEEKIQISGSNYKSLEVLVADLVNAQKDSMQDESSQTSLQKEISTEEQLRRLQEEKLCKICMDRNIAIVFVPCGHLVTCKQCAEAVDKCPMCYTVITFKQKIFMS
Test: small molecules binding XIAP protein – biophysical, small-molecule microarray, fluorescence 635 nm, primary screen (AID 1181);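 note: score merges 667 nm emission and signal to noise over triplicate slides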
Conditions: higher = more signal
One number for each entry.

{"columns": ["COMPOUND", "REPORTED_ENDPOINT", "EXPERIMENTAL_RESULT"],
 "data": [
  ["O=C1CS(=O)(=O)C(c2cccc([N+](=O)[O-])c2)N1c1ccccc1 (stereo unspecified)", "composite z-score", 0.0055],
  ["C=CCNC(=O)[C@@H]1[C@H]2C(=O)O[C@H](c3ccccc3)[C@H](c3ccccc3)N2[C@H](c2ccc(O)cc2)[C@@]12C(=O)N(C(=O)OCCOC)c1ccc(C#CC3=CCCCC3)cc12", "composite z-score", -0.0056],
  ["CCCCC(CC)C(O)C1C=CC2C(=O)N(C)C(=O)C2N1Nc1ccccc1 (stereo unspecified)", "composite z-score", 0.0297],
  ["COCCCNC(=O)[C@@]1(CCC(=O)OC(C)(C)C)N=C(c2ccc(OCCCO)cc2)O[C@H]1c1ccccc1N=[N+]=[N-]", "composite z-score", -0.0773],
  ["COC(=O)[C@@]1(Cc2ccc(OC)cc2)[C@H]2c3cc(C(=O)N(C)C)n(Cc4ccc(C)o4)c3C[C@H]2CN1C(=O)c1ccccc1", "composite z-score", 0.072],
  ["[N-]=[N+]=Nc1ccccc1C[C@@]1(C(=O)NCCN2CCOCC2)N=C(c2ccc(OCCCO)cc2)O[C@@H]1c1ccccc1N=[N+]=[N-]", "composite z-score", 0.17],
  ["CC1=C2[C@@H](CCc3ccccc3)OB(O)C[C@@H]2[C@@H]2C(=O)N(C)C(=O)[C@@H]2C1", "composite z-score", -0.239],
  ["Cc1cc(C)c(C(O)C2C=CC3C(=O)N(c4ccccc4)C(=O)C3N2Nc2ccccc2F)c(C)c1 (stereo unspecified)", "composite z-score", 0.127]
]}

Hello, I would appreciate it if you could give composite z-score for each entry below.
1. Cc1ccc(S[C@]2(C(=O)O)CC(=O)N(C3CCCCC3)[C@@H]2c2ccc(CO)cc2I)cc1
2. CC(C)[Si]1(C(C)C)OCc2cc(-c3ccc(-c4ccc(Cl)c(Cl)c4)o3)nc(-c3ccccc3)c21

1: -0.0525; 2: -0.031

Origin of values: PubChem BioAssay
